Listed here are binders together with their documented EC50.
ASSAY_TARGET: T1, Full-length cynomolgus monkey TIGIT on CHO-K1 cells (CHO-K1 cynomolgus monkey TIGIT) (cynomolgus monkey)
T1 construct: NCBI XP_015300911.1
T1 sequence (chain, as listed by the source limits assumed): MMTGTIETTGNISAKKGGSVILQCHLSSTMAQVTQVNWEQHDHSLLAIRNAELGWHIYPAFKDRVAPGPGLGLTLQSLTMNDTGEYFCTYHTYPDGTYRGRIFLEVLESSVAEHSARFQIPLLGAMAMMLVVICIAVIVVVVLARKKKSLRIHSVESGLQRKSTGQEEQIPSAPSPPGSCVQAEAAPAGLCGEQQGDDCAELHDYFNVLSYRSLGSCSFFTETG
ASSAY_PROCEDURE: cell binding, CHO-K1 cynomolgus monkey TIGIT
# number only, unit nM dropped from output

Measured EC50, TIGIT-006-H5L1 (antibody, V domains shown, Humanized anti-TIGIT antibody) VH: EVQLQESGPGLVKPSETLSLTCAVSGYSMTSDYWNWIRQPPGKKLEYIGYISYSGRTYYNPSLKSRVTISRDTSKNQFSLKLSSVTAADTAVYYCARGDYSNYGGAMYDWGQGTTVTVSS VL: DIVMTQTPLSLSVTPGQPASISCRASQGVSTTIAWYLQKPGQSPQLLIYSASYRYTGVPDRFSGSGSGTDFTLKISRVEAEDVGVYYCQQYYSSPFTFGGGTKVEIK : 0.162

EC50 in this record for TIGIT-002-H3L2 (antibody, V domains shown, Humanized anti-TIGIT antibody) VH: EVQLQESGPGLVKPSETLSLTCAVSGYSITSDSWNWIRQPPGKKLEWMGYISYSGNTYYNPSLKSRITISRDTSKNQFSLKLSSVTAADTAVYYCARLDFSNYGGAVDYWGQGTTVTVSS VL: DIVMTQTPLSLSVTPGQPASISCKASQNVRTAVAWYQQKPGQSPQLMIYSASYRYTGVPDRFSGSGSGTDFTLKISRVEAEDVGVYYCQQYYTTPWTFGGGTKVEIK : 0.113
